- System: Escherichia coli TOP10;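 also: peptides expressed intracellularly from a pBAD plasmid library in pooled LB shake-flask culture, induced with 0.3% L-arabinose, DNA abundance read by NGS, three biological replicates, DESeq2 with apeglm shrinkage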
- experimental_details: shrunken log2 fold change of peptide-encoding DNA abundance (4.5 h post-induction vs induction); higher = less antimicrobial activity (less host growth inhibition)
- experimental_parameters: time post-induction: 4.5 h; library: site-saturation at positions 5, 18, 19, 20
Is shrunken log2 fold change at least 0.009? Then 1. If not, -1.

residue_codes	tested_system	discrete_label
RRIRLRPPRLPRPRPRPPFAPRP	Escherichia coli TOP10	1
RRIRHRPPRLPRPRPRPMIMPRP	Escherichia coli TOP10	-1
RRIRWRPPRLPRPRPRPYFSPRP	Escherichia coli TOP10	-1
RRIRRRPPRLPRPRPRPIKKPRP	Escherichia coli TOP10	1
RRIRLRPPRLPRPRPRPVTFPRP	Escherichia coli TOP10	-1
RRIRYRPPRLPRPRPRPPTKPRP	Escherichia coli TOP10	1
RRIRARPPRLPRPRPRPTSGPRP	Escherichia coli TOP10	1
RRIRWRPPRLPRPRPRPADWPRP	Escherichia coli TOP10	1
RRIRTRPPRLPRPRPRPDTFPRP	Escherichia coli TOP10	1
RRIRRRPPRLPRPRPRPIRAPRP	Escherichia coli TOP10	1
RRIRIRPPRLPRPRPRPTERPRP	Escherichia coli TOP10	-1
RRIRGRPPRLPRPRPRPVTYPRP	Escherichia coli TOP10	-1
RRIRARPPRLPRPRPRPFGHPRP	Escherichia coli TOP10	1
RRIRPRPPRLPRPRPRPALKPRP	Escherichia coli TOP10	1
RRIRKRPPRLPRPRPRPRATPRP	Escherichia coli TOP10	1
RRIRCRPPRLPRPRPRPRYRPRP	Escherichia coli TOP10	-1
RRIRFRPPRLPRPRPRPHWRPRP	Escherichia coli TOP10	1
RRIRIRPPRLPRPRPRPNQMPRP	Escherichia coli TOP10	-1
RRIRMRPPRLPRPRPRPGTHPRP	Escherichia coli TOP10	1
RRIRFRPPRLPRPRPRPERLPRP	Escherichia coli TOP10	1
RRIRARPPRLPRPRPRPVRRPRP	Escherichia coli TOP10	1
RRIRCRPPRLPRPRPRPQFHPRP	Escherichia coli TOP10	-1
RRIRYRPPRLPRPRPRPSGVPRP	Escherichia coli TOP10	-1
RRIRWRPPRLPRPRPRPHTRPRP	Escherichia coli TOP10	-1
RRIRMRPPRLPRPRPRPHNEPRP	Escherichia coli TOP10	-1
RRIRRRPPRLPRPRPRPWMMPRP	Escherichia coli TOP10	1
RRIRHRPPRLPRPRPRPFRTPRP	Escherichia coli TOP10	-1
RRIRWRPPRLPRPRPRPIHLPRP	Escherichia coli TOP10	-1
RRIRKRPPRLPRPRPRPKPMPRP	Escherichia coli TOP10	1
RRIRQRPPRLPRPRPRPDNRPRP	Escherichia coli TOP10	-1
RRIRYRPPRLPRPRPRPFFTPRP	Escherichia coli TOP10	-1
RRIRERPPRLPRPRPRPNGLPRP	Escherichia coli TOP10	-1
RRIRNRPPRLPRPRPRPTPLPRP	Escherichia coli TOP10	1
RRIRHRPPRLPRPRPRPNVLPRP	Escherichia coli TOP10	-1
RRIRERPPRLPRPRPRPRHQPRP	Escherichia coli TOP10	-1
RRIRLRPPRLPRPRPRPMKKPRP	Escherichia coli TOP10	1
RRIRERPPRLPRPRPRPWDAPRP	Escherichia coli TOP10	-1
RRIRIRPPRLPRPRPRPWCLPRP	Escherichia coli TOP10	-1
RRIRTRPPRLPRPRPRPRPAPRP	Escherichia coli TOP10	1
RRIRKRPPRLPRPRPRPDNQPRP	Escherichia coli TOP10	-1
RRIRFRPPRLPRPRPRPHKTPRP	Escherichia coli TOP10	-1
RRIRWRPPRLPRPRPRPCFPPRP	Escherichia coli TOP10	-1
RRIRSRPPRLPRPRPRPHWVPRP	Escherichia coli TOP10	-1
RRIRHRPPRLPRPRPRPNLEPRP	Escherichia coli TOP10	1
RRIRPRPPRLPRPRPRPHPLPRP	Escherichia coli TOP10	1
RRIRRRPPRLPRPRPRPFCPPRP	Escherichia coli TOP10	-1
RRIRNRPPRLPRPRPRPWIGPRP	Escherichia coli TOP10	-1
RRIRQRPPRLPRPRPRPTPPPRP	Escherichia coli TOP10	1
RRIRHRPPRLPRPRPRPHGIPRP	Escherichia coli TOP10	-1
RRIRCRPPRLPRPRPRPDHWPRP	Escherichia coli TOP10	-1
RRIRIRPPRLPRPRPRPECEPRP	Escherichia coli TOP10	-1
RRIRCRPPRLPRPRPRPEIAPRP	Escherichia coli TOP10	1
RRIRSRPPRLPRPRPRPYYSPRP	Escherichia coli TOP10	-1
RRIRDRPPRLPRPRPRPFVFPRP	Escherichia coli TOP10	1
RRIRGRPPRLPRPRPRPGFCPRP	Escherichia coli TOP10	1
RRIRGRPPRLPRPRPRPTPCPRP	Escherichia coli TOP10	1
RRIRVRPPRLPRPRPRPSPQPRP	Escherichia coli TOP10	1
